src = patent US7205433B2

runDescription: Experimental Example 4: comparison of hygroscopicity by weight gain over time (40 to 46% RH)
Assay type: physicochemical
reportedConditions: 24° C., 120 minutes
readoutType: weight increase rate (%)
Give bare numbers, in %.

// known answers, use as guide
# molecule, weight increase rate (%)
rows = [
    ("CCOC(=O)[C@H](C)N.CS(=O)(=O)O [L-Ala-OEt MsOH salt, L-alanine ethyl ester methanesulfonate]", 0.42),
    ("CCOC(=O)[C@H](C)N.Cl [L-Ala-OEt HCl salt, alanine ethyl ester hydrochloride]", 9.89),
    ("CCOC(=O)[C@H](C)N.O=S(=O)(O)c1ccccc1 [L-Ala-OEt BsOH salt, L-alanine ethyl ester benzenesulfonate]", 1.23),
]

Turning now to a further record.
Identify measured weight increase rate (%) associated with CCOC(=O)[C@H](C)N.O=S(=O)(O)c1ccc(Cl)cc1 [L-Ala-OEt 4-CBS salt] 2.30

* * *

runDescription: Experimental Example 5: comparison of hygroscopicity by weight gain over time (60 to 66% RH)
Format: physicochemical
reportedConditions: 24 EC, 80 minutes
readoutType: weight increase rate (%)
Give bare numbers, in %.

// known answers, use as guide
# compound, weight increase rate (%)
measured = [
    ("CCOC(=O)[C@H](C)N.O=S(=O)(O)c1ccc(Cl)cc1 [L-Ala-OEt 4-CBS salt]", 4.31),
    ("COC(=O)[C@H](C)N.Cl [L-Ala-OMe HCl salt, alanine methyl ester hydrochloride, reference compound]", 11.65),
    ("CCOC(=O)[C@H](C)N.O=S(=O)(O)c1ccccc1 [L-Ala-OEt BsOH salt, L-alanine ethyl ester benzenesulfonate]", 2.25),
]

Identify measured weight increase rate (%) associated with CCOC(=O)[C@H](C)N.CS(=O)(=O)O [L-Ala-OEt MsOH salt, L-alanine ethyl ester methanesulfonate] 0.44

* * *

runDescription: Experimental Example 5: comparison of hygroscopicity by weight gain over time (60 to 66% RH)
Type: physicochemical
reportedConditions: 24 EC, 50 minutes
readoutType: weight increase rate (%)
Give bare numbers, in %.

// known answers, use as guide
# molecule, readoutUnits, weight increase rate (%)
data = [
    ("CCOC(=O)[C@H](C)N.O=S(=O)(O)c1ccccc1 [L-Ala-OEt BsOH salt, L-alanine ethyl ester benzenesulfonate]", "%", 2.11),
    ("CCOC(=O)[C@H](C)N.O=S(=O)(O)c1ccc(Cl)cc1 [L-Ala-OEt 4-CBS salt]", "%", 3.77),
    ("CCOC(=O)[C@H](C)N.CS(=O)(=O)O [L-Ala-OEt MsOH salt, L-alanine ethyl ester methanesulfonate]", "%", 0.38),
]

Turning now to a further record.
Identify measured weight increase rate (%) associated with COC(=O)[C@H](C)N.Cl [L-Ala-OMe HCl salt, alanine methyl ester hydrochloride, reference compound] 8.84

* * *

Please go through the items and note down their weight increase rate (%).
runDescription: Experimental Example 5: comparison of hygroscopicity by weight gain over time (60 to 66% RH)
Assay type: physicochemical
reportedConditions: 24 EC, 200 minutes
Give the figure together with its unit, number first.

// known answers, use as guide
# compound, weight increase rate (%)
measured = [
    ("CCOC(=O)[C@H](C)N.CS(=O)(=O)O [L-Ala-OEt MsOH salt, L-alanine ethyl ester methanesulfonate]", "0.51%"),
    ("COC(=O)[C@H](C)N.Cl [L-Ala-OMe HCl salt, alanine methyl ester hydrochloride, reference compound]", "17.77%"),
    ("CCOC(=O)[C@H](C)N.O=S(=O)(O)c1ccc(Cl)cc1 [L-Ala-OEt 4-CBS salt]", "5.03%"),
]

Turning now to a further record.
Identify measured weight increase rate (%) associated with CCOC(=O)[C@H](C)N.O=S(=O)(O)c1ccccc1 [L-Ala-OEt BsOH salt, L-alanine ethyl ester benzenesulfonate] 2.25%

* * *

runDescription: Experimental Example 4: comparison of hygroscopicity by weight gain over time (40 to 46% RH)
Format: physicochemical
reportedConditions: 24° C., 30 minutes
Please go through the items and note down their weight increase rate (%).
One number for each entry, in %.

// known answers, use as guide
# molecule, readoutType, readoutUnits, endpointResult
rows = [
    ("CCOC(=O)[C@H](C)N.O=S(=O)(O)c1ccccc1 [L-Ala-OEt BsOH salt, L-alanine ethyl ester benzenesulfonate]", "weight increase rate (%)", "%", 0.63),
    ("CCOC(=O)[C@H](C)N.Cl [L-Ala-OEt HCl salt, alanine ethyl ester hydrochloride]", "weight increase rate (%)", "%", 4.56),
]

Value sought for every listed molecule: weight increase rate (%).
1. CCOC(=O)[C@H](C)N.O=S(=O)(O)c1ccc(Cl)cc1 [L-Ala-OEt 4-CBS salt]
2. CCOC(=O)[C@H](C)N.CS(=O)(=O)O [L-Ala-OEt MsOH salt, L-alanine ethyl ester methanesulfonate]

1: 1.51; 2: 0.03

* * *

runDescription: Experimental Example 5: comparison of hygroscopicity by weight gain over time (60 to 66% RH)
Type: physicochemical
reportedConditions: 24 EC, 35 minutes
readoutType: weight increase rate (%)
One number for each entry, in %.

# compound, readoutUnits, endpointResult
rows = [
    ("CCOC(=O)[C@H](C)N.CS(=O)(=O)O [L-Ala-OEt MsOH salt, L-alanine ethyl ester methanesulfonate]", "%", 0.38),
    ("CCOC(=O)[C@H](C)N.O=S(=O)(O)c1ccccc1 [L-Ala-OEt BsOH salt, L-alanine ethyl ester benzenesulfonate]", "%", 1.97),
    ("COC(=O)[C@H](C)N.Cl [L-Ala-OMe HCl salt, alanine methyl ester hydrochloride, reference compound]", "%", 7.30),
]

Turning now to a further record.
Identify measured weight increase rate (%) associated with CCOC(=O)[C@H](C)N.O=S(=O)(O)c1ccc(Cl)cc1 [L-Ala-OEt 4-CBS salt] 3.38
